B1: MCOLN1 (parent)
chain: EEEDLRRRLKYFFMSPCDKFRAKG

# Variants of: B1
# Procedure details: protein stability index of a GFP-peptide fusion (GPS, HEK-293T) (PSI 1-6); higher = more stable;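 also: lentivirally expressed fusions sorted by FACS into six bins by GFP to DsRed ratio, PSI derived from sequencing read proportions per bin multiplied by bin number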
# Condition: c terminus: a fixed tail appended
Reported protein stability index values are given for each entry in this list.
Answer as a number with no unit attached.

Worked examples, 3 variants total:
Changes | protein stability index
D18S | 2.18
D18K | 1.94
E1A | 2.53

Which protein stability index value is on record for S15K ?
2.63

Any idea what protein stability index was measured for R7T ?
2.65

For G24E , what is its reported protein stability index?
3.07

If you can, please state the reported protein stability index value of F12L .
3.73

Record request: protein stability index value, item E1S
2.24

Return reported protein stability index; argument: K10S
2.3

Given the variant D4G , what is its reported protein stability index?
3.22

Entry R6A : reported protein stability index = ?
3.18

Given F13M , state its recorded protein stability index.
2.67
